- Measurement target: HLA-B*0702 (human)
- Measurement notes: competition vs 125I probe peptide, purified HLA
- Condition parameters: remark: other sources report otherwise
Readout: pIC50
Recall that pIC50 is obtained by taking minus log10 of the concentration measured in molar.

Report pIC50 for YPLWSQSI [MAGE3.77.I8 YPLWSQSI] please. 7.22
